test system: NK-92; assay: drug sensitivity score (viability inhibition); higher = more sensitive; conditions: 72 h; IL2 2.5 ng/ml
observation-type: drug sensitivity score
Returns: string containing the number followed by the unit.

Consider the following illustrative entries.
compound="CNC(=O)c1ccccc1Sc1ccc2c(/C=C/c3ccccn3)n[nH]c2c1 [Axitinib]" experimental_system=NK-92 observation_type="drug sensitivity score" observed_result="6.72 DSS"
compound="CO[C@@H](C(=O)N1Cc2[nH]nc(NC(=O)c3ccc(N4CCN(C)CC4)cc3)c2C1)c1ccccc1 [Danusertib]" experimental_system=NK-92 observation_type="drug sensitivity score" observed_result="6.91 DSS"
compound="CN1CCN(CCOc2cc(OC3CCOCC3)c3c(Nc4c(Cl)ccc5c4OCO5)ncnc3c2)CC1 [Saracatinib]" experimental_system=NK-92 observation_type="drug sensitivity score" observed_result="3.28 DSS"

Query: Provide measured drug sensitivity score value, entry: C[C@@H]1C[C@H]2[C@@H]3CCC4=CC(=O)C=C[C@]4(C)[C@@]3(F)[C@@H](O)C[C@]2(C)[C@@]1(O)C(=O)CO [Dexamethasone]
Result: 0 DSS
